// reported growth per item
- System: COLO 205 colon
- PROTOCOL SUMMARY: NCI-60 one-dose screen, 48 h (100 = growth as untreated, 0 = no growth, -100 = all killed)
- RUN CONDITIONS: 10 µM unless noted
About 83,000 compounds went through this panel and 20% of them were active in at least one assay; those are over-represented in the sample as a whole.
Answer in %, number only, no unit symbol.

Record excerpt, results attached:
[[record]]
compound = "Nc1cc(F)ccc1NC(=O)c1ccc(NC(=O)C/C=C/c2cccnc2)cn1"
numeric_readout = 1.22

[[record]]
compound = "CCCCCCNC(=O)Oc1ccc(/C(=C(\\C)c2ccc(Cl)cc2)c2ccc(OCCN(C)C)cc2)cc1"
numeric_readout = 11.6


Query: What does the record list as growth for "O=S(=O)(Nc1cc(Cl)cc(Cl)c1)c1ccc(-c2cnc(C3CC3)o2)cc1" ?
Reply: 14.2

----------
- System: SF-539 CNS
- PROTOCOL SUMMARY: NCI-60 one-dose screen, 48 h (100 = growth as untreated, 0 = no growth, -100 = all killed)
- RUN CONDITIONS: 10 µM unless noted
This is part of a sample that, as a whole, favours compounds with a hit. Of some 83,000 tested, about 20% had one in any assay.
// classify: if (growth < 60%) t else f

[[record]]
line_notation = "Cc1ccc(/C=C/CC(=O)Nc2ccc(C(=O)Nc3ccc(F)cc3N)cc2)cn1"
label_value = "t"

[[record]]
line_notation = "C#C[C@]1(O)CC[C@H]2[C@@H]3CC=C4c5sc(C6CCOCC6)nc5CC[C@]4(C)[C@H]3CC[C@@]21C"
label_value = "t"

[[record]]
line_notation = "O=S(=O)(NCCCNc1nccc(-n2cnc3ccccc32)n1)c1ccc(F)cc1"
label_value = "f"

[[record]]
line_notation = "C#C[C@]1(O)CC[C@H]2[C@@H]3CC=C4c5sc(-c6ccc(OC)cc6)nc5CC[C@]4(C)[C@H]3CC[C@@]21C"
label_value = "t"

[[record]]
line_notation = "C[C@H]1[C@H](C)CC[C@]2(COC(=O)c3cccnc3)CC[C@]3(C)C(=CC[C@@H]4[C@@]5(C)CCCNC(C)(C)[C@@H]5CC[C@]43C)[C@H]12"
label_value = "f"


Query: Below 60% on growth? Entry "CCc1ccc(NC(=O)N[C@@H](Cc2cccc(C)c2)C(=O)N[C@@H]2C(=O)N3CCC[C@H]3C(=O)N3CCCC[C@H]3C(=O)N[C@@H](CO)C(=O)N3C[C@H](C)C[C@H]3C(=O)O[C@H]2C)c(F)c1"
Reply: t

Query: Below 60% on growth? Entry "COc1ccc([C@@H]2[C@@H](O)C(=O)N2c2cc(OC)c(OC)c(OC)c2)cc1"
Reply: t

Query: Below 60% on growth? Entry "Cc1ccc(-c2csc(N/N=C/c3nc4ccccc4n3C3CC3)n2)cc1"
Reply: f

----------
- Tested on: NCI-H460 lung
- PROTOCOL SUMMARY: NCI-60 one-dose screen, 48 h
- RUN CONDITIONS: 10 µM unless noted
Compounds without any hit were thinned out: in the full panel of roughly 83,000, 20% have a hit. Active and inactive are the calls of the source. The calls were made as follows: active = growth percent below 10; inactive = the rest.
Answer with one of the outcomes active, inactive

Some solved entries appear below for comparison.
[[record]]
molecule = "O=C1c2c(c3c4cccnc4[nH]c3c3ccc4ccccc4c23)C(=O)N1CCN1CCOCC1"
label_value = "inactive"

[[record]]
molecule = "COc1ccccc1N1CCN(C2=NN=C(c3cccc(Cl)c3)c3ccccc3C2)CC1"
label_value = "active"

[[record]]
molecule = "COc1cc(/C=C/C(=O)c2ccc(NC(=O)COc3cccc4cccnc34)cc2)cc(OC)c1OC"
label_value = "inactive"

[[record]]
molecule = "CCC(CC)n1c(=O)c(SC2=NC3C(NN2)N(CC)C(=O)N3CC)c(C(=O)O)c2ccccc21 (stereo not drawn)"
label_value = "active"

[[record]]
molecule = "CN1CCN(Cc2ccc(NC(=O)c3cncc(C#Cc4cnc5ccc(O[C@H]6CCOC6)nn45)c3)cc2C(F)(F)F)CC1"
label_value = "active"


Query: Dear colleague, could you share the recorded outcome for "C#C[C@]1(O)CC[C@H]2[C@@H]3CC=C4c5sc(Nc6ccc(OC)nc6)nc5CC[C@]4(C)[C@H]3CC[C@@]21C" when you have a moment?
Reply: inactive

Query: Dear colleague, could you share the recorded outcome for "COc1cc2cc(Oc3ccc(NC(=O)Nc4cccc(C(F)(F)F)c4)cc3)c(C)nc2cc1OCCN(C)C" when you have a moment?
Reply: inactive

Query: Dear colleague, could you share the recorded outcome for "Cn1nc(Nc2ccccc2)c(C(=O)NN)c1N" when you have a moment?
Reply: inactive

Query: Dear colleague, could you share the recorded outcome for "COc1ccc(NS(=O)(=O)c2ccc(-c3cnc(C4CC4)o3)cc2)cc1Cl" when you have a moment?
Reply: inactive

Query: Dear colleague, could you share the recorded outcome for "CC1(C)CC[C@]2(C(=O)N3CCCN(CC#N)CC3)CC[C@]3(C)C(=CC[C@@H]4[C@@]5(C)CC[C@H](O)C(C)(C)[C@@H]5CC[C@]43C)[C@H]2C1" when you have a moment?
Reply: inactive

Query: Dear colleague, could you share the recorded outcome for "Oc1ccc(CSc2nnc(-c3ccc(Oc4ccccc4)cc3)n2-c2ccccc2)c2cccnc12" when you have a moment?
Reply: active

Query: Dear colleague, could you share the recorded outcome for "CCNC(=O)Oc1ccc(/C(=C(/C)c2ccccc2)c2ccc(OCCN3CCCC3)cc2)cc1" when you have a moment?
Reply: inactive

Query: Dear colleague, could you share the recorded outcome for "CS(=O)(=O)c1ccc2c(c1)c1c(n2C(=O)c2ccc(Cl)cc2)CCCC1" when you have a moment?
Reply: inactive

Query: Dear colleague, could you share the recorded outcome for "Nc1ccc(-c2nnc(SCc3ccc(O)c4ncccc34)n2-c2ccccc2)cc1" when you have a moment?
Reply: active

Query: Dear colleague, could you share the recorded outcome for "CN1CCN(Cc2ccc(NC(=O)c3cncc(C#Cc4[nH]nc5ncncc45)c3)cc2C(F)(F)F)CC1" when you have a moment?
Reply: inactive
